All values here come from ChEMBL document CHEMBL3885881.

Parameter BASOPHIL: see the listing below.
Species: Rattus norvegicus
protocolDescription: DrugMatrix - Regimen: Daily Repeat
Type: toxicity, organism-based, Sprague-Dawley
Design: regimen Daily Repeat, gender Male, age 6-8 weeks
assayContext: in vivo, po, 0 mg/kg, 120 h, tissue Blood, route oral GAVAGE, dose level Control, time 5 day, vehicle 100 % WATER
Units required after the number.

Can you share its BASOPHIL? I mean this compound: CN1C2CCCC1CC(NC(=O)c1nn(C)c3ccccc13)C2 (stereo not drawn)
0%

Can you share its BASOPHIL? I mean this compound: "Nc1ccc(S(=O)(=O)Nc2ncccn2)cc1"
0%

Kindly review the next compound as well.
Can you share its BASOPHIL? I mean this compound: "CC[C@H]1OC(=O)[C@H](C)[C@@H](O[C@H]2C[C@@](C)(OC)[C@@H](O)[C@H](C)O2)[C@H](C)[C@@H](O[C@@H]2O[C@H](C)C[C@H](N(C)C)[C@H]2O)[C@](C)(O)C[C@@H](C)CN(C)[C@H](C)[C@@H](O)[C@]1(C)O"
0%

====

Organism: Rattus norvegicus
protocolDescription: DrugMatrix - Regimen: Daily Repeat
Assay type: toxicity, organism-based, Sprague-Dawley
Parameters: regimen Daily Repeat, gender Male, age 6-8 weeks
assayContext: in vivo, po, 0 mg/kg, 120 h, tissue Blood, route oral GAVAGE, dose level Control, time 5 day, vehicle .5 % CMC
reportedEndpoint: NUCLEATED RED BLOOD CELLS

As a guide, the following entries are already answered.
Can you share its NUCLEATED RED BLOOD CELLS? I mean this compound: "COc1ccc(/C=C/C(=O)Nc2ccccc2C(=O)O)cc1OC"
0.17 /100WBC

Can you share its NUCLEATED RED BLOOD CELLS? I mean this compound: "CO[C@H]1C[C@@H]2CC[C@@H](C)[C@@](O)(O2)C(=O)C(=O)N2CCCC[C@H]2C(=O)O[C@H]([C@H](C)C[C@@H]2CC[C@@H](O)[C@H](OC)C2)CC(=O)[C@H](C)/C=C(\C)[C@@H](O)[C@@H](OC)C(=O)[C@H](C)C[C@H](C)/C=C/C=C/C=C/1C"
0.17 /100WBC

---
Can you share its NUCLEATED RED BLOOD CELLS? I mean this compound: "CN1C(=O)CN=C(c2ccccc2)c2cc(Cl)ccc21"
0.33 /100WBC

====

Species on record: Rattus norvegicus
protocolDescription: DrugMatrix - Regimen: Daily Repeat
Type: toxicity, organism-based, Sprague-Dawley
Design: regimen Daily Repeat, gender Male, age 6-8 weeks
assayContext: in vivo, po, 0 mg/kg, 120 h, tissue Plasma, route oral GAVAGE, dose level Control, time 5 day, vehicle 100 % WATER
If the reported POTASSIUM equals or exceeds 6 MEQ/L, assign Yes. If not, assign No.

Answer whether POTASSIUM of "CCOC(N)=O" is greater than or equal to 6 MEQ/L.
Yes

---
Answer whether POTASSIUM of Cc1c(N(C)CS(=O)(=O)[O-])c(=O)n(-c2ccccc2)n1C.[Na+] [DIPYRONE SODIUM] is greater than or equal to 6 MEQ/L.
No

Answer whether POTASSIUM of "O=C(O)c1cc(=O)c2c(OCC(O)COc3cccc4oc(C(=O)O)cc(=O)c34)cccc2o1" is greater than or equal to 6 MEQ/L.
Yes

====

Organism: Rattus norvegicus
protocolDescription: DrugMatrix - Regimen: Daily Repeat
Assay type: toxicity, organism-based, Sprague-Dawley
Parameters: regimen Daily Repeat, gender Male, age 6-8 weeks
assayContext: in vivo, po, 1500 mg/kg, 120 h, tissue Blood, route oral GAVAGE, dose level High, time 5 day, vehicle .5 % CMC
reportedEndpoint: EOSINOPHIL (%)
Reply with just the number (in %).

Can you share its EOSINOPHIL? I mean this compound: "C[C@@H](O)[C@H]1C(=O)N2C(C(=O)O)=C(S[C@@H]3CN[C@H](C(=O)N(C)C)C3)[C@H](C)[C@H]12"
2

Can you share its EOSINOPHIL? I mean this compound: Nc1nc2c(c(=O)[nH]1)N(C=O)C(CNc1ccc(C(=O)N[C@@H](CCC(=O)O)C(=O)O)cc1)CN2 (stereo not given in full)
0.33

Can you share its EOSINOPHIL? I mean this compound: "CCOC(=O)[C@H](CCc1ccccc1)N[C@@H](C)C(=O)N1CCC[C@H]1C(=O)O"
0

Can you share its EOSINOPHIL? I mean this compound: "CC(C)(Sc1cc(C(C)(C)C)c(O)c(C(C)(C)C)c1)Sc1cc(C(C)(C)C)c(O)c(C(C)(C)C)c1"
0.67

---
Can you share its EOSINOPHIL? I mean this compound: "O=c1cc(-c2ccccc2)oc2ccc3ccccc3c12"
0.17

====

Species: Rattus norvegicus
protocolDescription: DrugMatrix - Regimen: Daily Repeat
Assay type: toxicity, organism-based, Sprague-Dawley
Set-up: regimen Daily Repeat, gender Male, age 6-8 weeks
assayContext: in vivo, po, 0 mg/kg, 120 h, tissue Plasma, route oral GAVAGE, dose level Control, time 5 day, vehicle 100 % WATER
reportedEndpoint: URIC ACID

As a guide, the following entries are already answered.
Can you share its URIC ACID? I mean this molecule: "CC[C@H]1OC(=O)[C@H](C)[C@@H](O[C@H]2C[C@@](C)(OC)[C@@H](O)[C@H](C)O2)[C@H](C)[C@@H](O[C@@H]2O[C@H](C)C[C@H](N(C)C)[C@H]2O)[C@](C)(OC)C[C@@H](C)C(=O)[C@H](C)[C@@H](O)[C@]1(C)O"
0.75 mg/dL

Can you share its URIC ACID? I mean this molecule: "O=C(O)c1cccnc1"
2.18 mg/dL

Can you share its URIC ACID? I mean this molecule: CCN(CC)CC#CCOC(=O)C(O)(c1ccccc1)C1CCCCC1 (centres undefined)
1.63 mg/dL

Can you share its URIC ACID? I mean this molecule: "CCOC(N)=O"
1.52 mg/dL

Can you share its URIC ACID? I mean this molecule: Cc1c(N(C)CS(=O)(=O)[O-])c(=O)n(-c2ccccc2)n1C.[Na+] [DIPYRONE SODIUM]
0.97 mg/dL

---
Can you share its URIC ACID? I mean this molecule: CN1C2CCCC1CC(NC(=O)c1nn(C)c3ccccc13)C2 (centres undefined)
0.63 mg/dL

Can you share its URIC ACID? I mean this molecule: "CC[C@H]1OC(=O)[C@H](C)[C@@H](O[C@H]2C[C@@](C)(OC)[C@@H](O)[C@H](C)O2)[C@H](C)[C@@H](O[C@@H]2O[C@H](C)C[C@H](N(C)C)[C@H]2O)[C@](C)(O)C[C@@H](C)CN(C)[C@H](C)[C@@H](O)[C@]1(C)O"
0.52 mg/dL

====

Species: Rattus norvegicus
protocolDescription: DrugMatrix - Regimen: Daily Repeat
Type: toxicity, organism-based, Sprague-Dawley
Parameters: regimen Daily Repeat, gender Male, age 6-8 weeks
assayContext: in vivo, po, 100 mg/kg, 72 h, tissue Plasma, route oral GAVAGE, dose level Low, time 3 day, vehicle .5 % CMC
Parameter CHLORIDE: see the listing below.
Reply with just the number (in MEQ/L).

As a guide, the following entries are already answered.
Can you share its CHLORIDE? I mean this compound: "CC[C@]1(O)CC[C@H]2[C@@H]3CCC4=CCCC[C@@H]4[C@H]3CC[C@@]21C"
103.33

Can you share its CHLORIDE? I mean this compound: Nc1nc2c(c(=O)[nH]1)N(C=O)C(CNc1ccc(C(=O)N[C@@H](CCC(=O)O)C(=O)O)cc1)CN2 (some centres undefined) [LEUCOVORIN]
98.67

Can you share its CHLORIDE? I mean this compound: CC=Cc1ccc(O)c(OC)c1 [ISOEUGENOL]
102

Kindly review the next compound as well.
Can you share its CHLORIDE? I mean this compound: C#C[C@]1(O)CC[C@H]2[C@@H]3CCC4=Cc5oncc5C[C@]4(C)[C@H]3CC[C@@]21C [DANAZOL]
102

====

Species on record: Rattus norvegicus
protocolDescription: DrugMatrix - Regimen: Daily Repeat
Format: toxicity, organism-based, Sprague-Dawley
Set-up: regimen Daily Repeat, gender Male, age 6-8 weeks
assayContext: in vivo, po, 0 mg/kg, 72 h, tissue Blood, route oral GAVAGE, dose level Control, time 3 day, vehicle .5 % CMC
Parameter HEMATOCRIT: see the listing below.
Reply with just the number (in %).

Can you share its HEMATOCRIT? I mean this compound: O=c1cc(-c2ccccc2)oc2ccc3ccccc3c12 [BETA-NAPHTHOFLAVONE]
43.07

Can you share its HEMATOCRIT? I mean this compound: C[C@@H](O)[C@H]1C(=O)N2C(C(=O)O)=C(S[C@@H]3CN[C@H](C(=O)N(C)C)C3)[C@H](C)[C@H]12 [MEROPENEM]
36.52

Can you share its HEMATOCRIT? I mean this compound: "CCOC(=O)[C@H](CCc1ccccc1)N[C@@H](C)C(=O)N1Cc2ccccc2C[C@H]1C(=O)O"
35.45

Can you share its HEMATOCRIT? I mean this compound: Clc1cc2c(cc1Cl)Oc1cc(Cl)c(Cl)cc1O2 [2,3,7,8-TETRACHLORODIBENZO-P-DIOXIN]
43.07

Kindly review the next compound as well.
Can you share its HEMATOCRIT? I mean this compound: "CC[C@]1(O)CC[C@H]2[C@@H]3CCC4=CCCC[C@@H]4[C@H]3CC[C@@]21C"
42
